Tested on: C. neoformans wild type strain H99
experiment description: microbe, parasite or virus in culture
Type: cell-based, Cryptococcus neoformans
setup conditions: wild-type H99; alone; read at 24 and 48 hours, 37° C.
Where a SMILES comes first, the peptide text is derived from it. The star is where a group is joined. Palmitoyl = CCCCCCCCCCCCCCCC(=O)*

# molecule, tested target, MIC ug/mL H99
data = [
    ("CCCCCCCCCCCCCCCC(=O)N[C@@H](CO)C(=O)N[C@@H](CCC(=O)O)C(=O)N[C@@H](CO)C(=O)NCC(=O)N[C@H](C(=O)N[C@@H](C)C(=O)N[C@@H](Cc1c[nH]c2ccccc12)C(=O)NCC(=O)NCC(=O)N[C@H](C(=O)N[C@@H](CCCCN)C(=O)N[C@@H](CCCCN)C(=O)N[C@@H](CC(N)=O)C(=O)N[C@@H](Cc1ccc(O)cc1)C(=O)N[C@@H](C)C(=O)O)[C@@H](C)CC)[C@@H](C)CC [AS15-Pa] (Palmitoyl-SESGIAWGGIKKNYA-OH)", "C. neoformans wild type strain H99", ">128 µg/mL"),
]

====

In this section, each of the compounds is paired with its reported MIC ug/mL H99.
Tested on: C. neoformans wild type strain H99
experiment description: microbe, parasite or virus in culture
Type: cell-based, Cryptococcus neoformans
setup conditions: wild-type H99; alone; read at 24 and 48 hours, 37° C.
Where a SMILES comes first, the peptide text is derived from it. The star is where a group is joined. Myristoyl = CCCCCCCCCCCCCC(=O)*; Decanoyl = CCCCCCCCCC(=O)*; Hexanoyl = CCCCCC(=O)*
measure name: MIC ug/mL H99

# compound, endpoint result
records = [
    ("CCCCCCCCCCCCCC(=O)N[C@@H](Cc1ccc(O)cc1)C(=O)N[C@H](C(=O)N[C@@H](CC(=O)O)C(=O)NCC(=O)N[C@@H](Cc1ccccc1)C(=O)N1CCC[C@H]1C(=O)N[C@@H](CC(N)=O)C(=O)N[C@@H](CC(C)C)C(=O)N[C@@H](CCCNC(=N)N)C(=O)N[C@@H](CCC(=O)O)C(=O)N[C@@H](CC(=O)O)C(=O)N[C@@H](CCC(=O)O)C(=O)N[C@@H](Cc1c[nH]cn1)C(=O)N[C@@H](Cc1ccccc1)C(=O)N[C@@H](CCC(N)=O)C(=O)O)C(C)C [QY15-Ma] (Myristoyl-YVDGFPNLREDEHFQ-OH)", ">128 µg/mL"),
    ("CCCCCCCCCCCCCC(=O)N[C@@H](Cc1c[nH]c2ccccc12)C(=O)NCC(=O)NCC(=O)N[C@H](C(=O)N[C@@H](CCCCN)C(=O)N[C@@H](CCCCN)C(=O)N[C@@H](CC(N)=O)C(=O)N[C@@H](Cc1ccc(O)cc1)C(=O)N[C@@H](C)C(=O)O)[C@@H](C)CC [AW9-Ma] (Myristoyl-WGGIKKNYA-OH)", "64 µg/mL"),
    ("CCCCCCCCCCCCCC(=O)N[C@@H](CO)C(=O)NCC(=O)N[C@H](C(=O)N[C@@H](C)C(=O)N[C@@H](Cc1c[nH]c2ccccc12)C(=O)NCC(=O)NCC(=O)N[C@H](C(=O)N[C@@H](CCCCN)C(=O)O)[C@@H](C)CC)[C@@H](C)CC [KS9-Ma] (Myristoyl-SGIAWGGIK-OH)", ">128 µg/mL"),
    ("CCCCCC(=O)N[C@@H](CO)C(=O)N[C@@H](CCC(=O)O)C(=O)N[C@@H](CO)C(=O)NCC(=O)N[C@H](C(=O)N[C@@H](C)C(=O)N[C@@H](Cc1c[nH]c2ccccc12)C(=O)NCC(=O)NCC(=O)N[C@H](C(=O)N[C@@H](CCCCN)C(=O)N[C@@H](CCCCN)C(=O)N[C@@H](CC(N)=O)C(=O)N[C@@H](Cc1ccc(O)cc1)C(=O)N[C@@H](C)C(=O)O)[C@@H](C)CC)[C@@H](C)CC [AS15-Ha] (Hexanoyl-SESGIAWGGIKKNYA-OH)", ">128 µg/mL"),
    ("CCCCCCCCCC(=O)N[C@@H](CO)C(=O)N[C@@H](CCC(=O)O)C(=O)N[C@@H](CO)C(=O)NCC(=O)N[C@H](C(=O)N[C@@H](C)C(=O)N[C@@H](Cc1c[nH]c2ccccc12)C(=O)NCC(=O)NCC(=O)N[C@H](C(=O)N[C@@H](CCCCN)C(=O)N[C@@H](CCCCN)C(=O)N[C@@H](CC(N)=O)C(=O)N[C@@H](Cc1ccc(O)cc1)C(=O)N[C@@H](C)C(=O)O)[C@@H](C)CC)[C@@H](C)CC [AS15-Da] (Decanoyl-SESGIAWGGIKKNYA-OH)", ">128 µg/mL"),
    ("CCCCCCCCCCCCCC(=O)N[C@@H](CO)C(=O)N[C@@H](CCC(=O)O)C(=O)N[C@@H](CO)C(=O)NCC(=O)N[C@H](C(=O)N[C@@H](C)C(=O)N[C@@H](Cc1c[nH]c2ccccc12)C(=O)NCC(=O)NCC(=O)N[C@H](C(=O)N[C@@H](CCCCN)C(=O)N[C@@H](CCCCN)C(=O)N[C@@H](CC(N)=O)C(=O)N[C@@H](Cc1ccc(O)cc1)C(=O)N[C@@H](C)C(=O)O)[C@@H](C)CC)[C@@H](C)CC [AS15-Ma] (Myristoyl-SESGIAWGGIKKNYA-OH)", ">128 µg/mL"),
]

Entry source: patent US11939402B2
